Reference for the values: ChEMBL document CHEMBL1137816

Exercise: for every item that follows, state its recorded inhibition.
# target-system: Tissue alpha-L-fucosidase (Bos taurus) (UniProt Q2KIM0)
# Sequence (whole entry): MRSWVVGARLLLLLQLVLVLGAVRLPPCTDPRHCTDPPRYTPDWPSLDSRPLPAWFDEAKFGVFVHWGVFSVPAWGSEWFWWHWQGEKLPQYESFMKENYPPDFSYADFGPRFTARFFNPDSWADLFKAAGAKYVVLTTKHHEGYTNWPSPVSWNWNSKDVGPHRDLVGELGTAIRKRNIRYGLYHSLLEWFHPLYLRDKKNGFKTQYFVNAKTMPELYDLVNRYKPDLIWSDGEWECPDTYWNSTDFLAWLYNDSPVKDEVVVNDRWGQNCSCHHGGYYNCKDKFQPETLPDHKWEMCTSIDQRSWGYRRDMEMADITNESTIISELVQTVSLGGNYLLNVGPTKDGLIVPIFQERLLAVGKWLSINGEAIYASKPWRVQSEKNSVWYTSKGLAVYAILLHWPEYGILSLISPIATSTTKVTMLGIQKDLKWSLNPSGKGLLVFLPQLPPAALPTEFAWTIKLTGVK
# assay-method-text: Inhibition of bovine epididymis alpha-L-fucosidase assessed as p-nitrophenol release at 1000 uM after 30 mins by spectrophotometry

Read off the recorded inhibition for OC[C@H]1NC[C@H](O)[C@@H](O)[C@@H]1O < 50%

Read off the recorded inhibition for C[C@H]1N[C@H](CO)[C@@H](O)[C@H](O)[C@H]1O < 50%

Read off the recorded inhibition for OC[C@H]1NC[C@@H](O)[C@H](O)[C@@H]1O < 50%

Read off the recorded inhibition for OCC(O)[C@H]1N[C@H](CO)[C@@H](O)[C@@H]1O (single isomer, unassigned) < 50%

Read off the recorded inhibition for CC(O)[C@H]1N[C@H](CO)[C@@H](O)[C@@H]1O (single isomer, unassigned) < 50%

* * *

# target-system: Tissue alpha-L-fucosidase (Bos taurus, UniProt Q2KIM0)
# Sequence (Q2KIM0 whole entry): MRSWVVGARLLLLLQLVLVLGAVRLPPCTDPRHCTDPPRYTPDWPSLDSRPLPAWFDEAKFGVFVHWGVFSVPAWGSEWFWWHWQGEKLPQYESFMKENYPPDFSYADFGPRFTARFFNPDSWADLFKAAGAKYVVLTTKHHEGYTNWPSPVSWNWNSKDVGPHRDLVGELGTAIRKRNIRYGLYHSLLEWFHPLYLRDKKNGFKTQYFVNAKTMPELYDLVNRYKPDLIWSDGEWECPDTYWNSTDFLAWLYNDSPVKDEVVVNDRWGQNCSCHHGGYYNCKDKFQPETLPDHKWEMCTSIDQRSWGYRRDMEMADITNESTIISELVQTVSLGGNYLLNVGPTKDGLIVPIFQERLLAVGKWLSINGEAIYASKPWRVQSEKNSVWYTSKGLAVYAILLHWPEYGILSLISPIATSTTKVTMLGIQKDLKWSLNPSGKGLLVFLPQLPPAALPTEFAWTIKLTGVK
quantity-measured: IC50 (µM)
Supply the numeric figure in µM, leaving out any unit text.

Read off the recorded IC50 for C[C@@H]1C[C@H](O)[C@@H]2[C@@H](O)[C@H](O)[C@@H](CO)N21 (relative stereo) 23

Read off the recorded IC50 for OCC[C@H]1N[C@@H](CO)[C@H](O)[C@H]1O 840

* * *

# Test system: Penicillium decumbens
# assay-method-text: Inhibition of Penicillium decumbens alpha-L-rhamnosidase assessed as p-nitrophenol release at 1000 uM by spectrophotometry
Activity calls are given as the source filed them. The rule behind the calls is not given here.
quantity-measured: Activity

Some entries whose results are on file:
                                   molecule  quantity_measured  measurement
0  C[C@@H]1C[C@H](O)[C@@H]2[C@@H](O)[C@H](O)[C@@H](CO)N21 (relative stereo) [HYACINTHACINE B4]           Activity     inactive
1  C[C@H]1CC[C@@H]2[C@H](O)[C@H](O)[C@@H](CO)N21 (relative stereo)           Activity     inactive
2  C[C@@H]1C[C@H](O)[C@@H]2[C@H](O)[C@@H](O)[C@@H](CO)N21 (relative stereo)           Activity     inactive
3  C[C@@H]1C[C@@H](O)[C@@H]2[C@H](O)[C@H](O)[C@@H](CO)N21 [HYACINTHACINE B3]           Activity     inactive
4  C[C@@H]1CC[C@@H]2[C@H](O)[C@H](O)[C@@H](CO)N12 (relative stereo)           Activity     inactive

Read off the recorded Activity for C[C@@H]1C[C@H](O)[C@@H]2[C@H](O)[C@H](O)[C@@H](CO)N21 (relative stereo) [HYACINTHACINE B5] inactive

Read off the recorded Activity for C[C@H]1CC[C@@H]2[C@H](O)[C@H](O)[C@H](CO)N21 (relative stereo) inactive

Read off the recorded Activity for C[C@@H]1CC[C@@H]2[C@@H](O)[C@@H](O)[C@@H](CO)N12 (relative stereo) [HYACINTHACINE A5] inactive

* * *

# target-system: Lactase/phlorizin hydrolase (Rattus norvegicus, UniProt Q02401)
# Sequence (Q02401 868-1928 limits assumed): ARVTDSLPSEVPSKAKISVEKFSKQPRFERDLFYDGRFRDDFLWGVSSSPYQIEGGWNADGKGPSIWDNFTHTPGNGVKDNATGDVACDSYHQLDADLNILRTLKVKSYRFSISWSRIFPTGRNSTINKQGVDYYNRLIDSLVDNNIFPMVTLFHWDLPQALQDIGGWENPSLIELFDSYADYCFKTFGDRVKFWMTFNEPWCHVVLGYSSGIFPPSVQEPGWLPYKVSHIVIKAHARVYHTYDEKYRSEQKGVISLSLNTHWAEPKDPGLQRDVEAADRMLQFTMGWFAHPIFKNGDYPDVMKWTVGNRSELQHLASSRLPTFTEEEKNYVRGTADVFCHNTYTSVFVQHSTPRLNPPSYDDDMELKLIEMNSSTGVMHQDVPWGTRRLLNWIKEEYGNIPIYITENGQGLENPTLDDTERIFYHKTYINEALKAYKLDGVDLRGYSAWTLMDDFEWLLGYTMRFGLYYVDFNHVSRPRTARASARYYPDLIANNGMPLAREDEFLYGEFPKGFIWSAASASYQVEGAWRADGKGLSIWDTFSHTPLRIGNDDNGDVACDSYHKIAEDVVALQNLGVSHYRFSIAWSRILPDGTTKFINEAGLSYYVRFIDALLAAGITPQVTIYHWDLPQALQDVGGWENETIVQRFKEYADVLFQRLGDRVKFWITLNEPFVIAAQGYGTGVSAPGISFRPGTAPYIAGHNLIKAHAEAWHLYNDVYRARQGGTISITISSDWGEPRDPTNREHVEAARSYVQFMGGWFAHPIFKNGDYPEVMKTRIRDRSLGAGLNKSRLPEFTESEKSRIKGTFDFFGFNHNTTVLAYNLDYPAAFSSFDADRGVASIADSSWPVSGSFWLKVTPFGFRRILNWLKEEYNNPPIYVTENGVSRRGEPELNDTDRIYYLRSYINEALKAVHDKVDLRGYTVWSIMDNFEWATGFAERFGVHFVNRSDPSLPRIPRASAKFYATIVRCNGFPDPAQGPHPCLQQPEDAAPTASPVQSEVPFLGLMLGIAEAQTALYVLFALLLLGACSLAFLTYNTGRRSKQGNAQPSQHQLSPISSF
quantity-measured: pIC50
Keep it numeric: pIC50 is minus log10 of the concentration in mol/L.

Read off the recorded pIC50 for C[C@@H]1C[C@@H](O)[C@@H]2[C@H](O)[C@H](O)[C@@H](CO)N21 4.74

* * *

# assay-method-text: Inhibition of Penicillium decumbens alpha-L-rhamnosidase assessed as p-nitrophenol release after 30 mins by spectrophotometry
quantity-measured: pIC50
Keep it numeric: pIC50 is minus log10 of the concentration in mol/L.

Read off the recorded pIC50 for OCC[C@H]1N[C@H](CO)[C@@H](O)[C@@H]1O 4.03

Read off the recorded pIC50 for OC[C@H]1NC[C@@H](O)[C@H](O)[C@@H]1O 5.74

Read off the recorded pIC50 for OC[C@H]1NC[C@H](O)[C@@H](O)[C@@H]1O 3.07

Read off the recorded pIC50 for C[C@H]1N[C@H](CO)[C@@H](O)[C@H](O)[C@H]1O 4.03

* * *

# target-system: Beta-galactosidase (Bos taurus)
# Sequence (Q58D55 whole entry): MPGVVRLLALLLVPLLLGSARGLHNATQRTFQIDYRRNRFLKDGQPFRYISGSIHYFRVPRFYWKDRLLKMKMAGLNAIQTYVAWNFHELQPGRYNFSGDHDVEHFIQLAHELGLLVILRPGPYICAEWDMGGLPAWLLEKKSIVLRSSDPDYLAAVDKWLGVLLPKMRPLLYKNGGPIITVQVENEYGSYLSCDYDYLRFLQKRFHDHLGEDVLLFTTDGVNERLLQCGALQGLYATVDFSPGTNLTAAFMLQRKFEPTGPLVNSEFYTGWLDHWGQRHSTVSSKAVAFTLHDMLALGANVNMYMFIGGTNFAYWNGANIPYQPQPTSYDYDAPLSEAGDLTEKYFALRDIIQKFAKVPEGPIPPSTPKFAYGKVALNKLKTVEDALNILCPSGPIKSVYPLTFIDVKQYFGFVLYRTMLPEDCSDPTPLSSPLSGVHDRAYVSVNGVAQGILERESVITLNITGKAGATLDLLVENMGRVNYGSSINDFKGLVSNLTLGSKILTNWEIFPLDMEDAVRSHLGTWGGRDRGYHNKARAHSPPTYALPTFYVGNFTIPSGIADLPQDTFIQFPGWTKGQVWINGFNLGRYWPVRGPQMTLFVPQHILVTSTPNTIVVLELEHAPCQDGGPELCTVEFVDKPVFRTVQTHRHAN
quantity-measured: pIC50
Keep it numeric: pIC50 is minus log10 of the concentration in mol/L.

Read off the recorded pIC50 for OCC[C@H]1N[C@H](CO)[C@@H](O)[C@@H]1O 4.06

* * *

quantity-measured: IC50

// fetch IC50 for CC(O)[C@H]1N[C@H](CO)[C@@H](O)[C@@H]1O (single isomer, unassigned) ; system: Alpha-glucosidase MAL12 (Saccharomyces cerevisiae S288c) 85 µM
